PROTOCOL: Cyclic voltammetry (reduction potentials)
Assay type: physicochemical
MEASUREMENT SETUP: first value of cell; DMF, 0.05 M Bu4NClO4, glass-carbon electrode, vs Ag/AgCl/KCl (sat.), 100 mV/s, C = 1 × 10^−1 mol L^−1
QUANTITY KIND: Ered, first reduction potential (V)
Quick reminder: number only, in V, skip the unit.

Study these solved cases before continuing.
{"columns": ["COMPOUND", "READING"],
 "data": [
  ["O=C([O-])c1c(F)c(F)c(F)c(F)c1F.O=C([O-])c1c(F)c(F)c(F)c(F)c1F.[Ti+4].c1cc[cH-]c1.c1cc[cH-]c1", "−0.57"],
  ["[N-]=[N+]=Nc1ccc(C(=O)[O-])cc1.[N-]=[N+]=Nc1ccc(C(=O)[O-])cc1.[Ti+4].c1cc[cH-]c1.c1cc[cH-]c1", "−0.78"],
  ["O=C([O-])c1cccc(F)c1.O=C([O-])c1cccc(F)c1.[Ti+4].c1cc[cH-]c1.c1cc[cH-]c1", "−0.79"]
]}

Data request: Entry CC(=O)Oc1ccccc1C(=O)[O-].CC(=O)Oc1ccccc1C(=O)[O-].[Ti+4].c1cc[cH-]c1.c1cc[cH-]c1 has what Ered, first reduction potential?
Data returned: −0.81

Data request: Ok, now [Cl-].[Cl-].[Ti+4].c1cc[cH-]c1.c1cc[cH-]c1 [Cp2TiCl2, Titanocene dichloride]
Data returned: −0.62

Data request: Please do the same for O=C([O-])c1ccccc1.O=C([O-])c1ccccc1.[Ti+4].c1cc[cH-]c1.c1cc[cH-]c1 as well.
Data returned: −0.85
